Assay: Drug metabolism in mouse liver microsomes at 5 uM after 24 hrs
Format: ADME, Microsome
Details: read-out: Drug metabolism
quantity name: metabolised at 24 h, 5 µM (%)
One number for each entry, in %.

Entry CCN1CCN(CC(=O)NC2(c3ccc(Cl)c(Cl)c3)C(=O)Nc3cc(Cl)cc(Cl)c32)CC1 (single isomer, unassigned; (+)) has what metabolised at 24 h, 5 µM?
44

###

Test system: Hepatocyte
Assay: Intrinsic clearance in human hepatocytes assessed per million cells at 5 uM
Type: ADME, cell-based
quantity name: CLint (mL/h/10⁶ cells)
Numbers only, in mL/h/10⁶ cells.

// CLint lookup, key: CCN1CCN(CC(=O)NC2(c3ccc(Cl)c(Cl)c3)C(=O)Nc3cc(Cl)cc(Cl)c32)CC1 (single isomer, unassigned; (+))
0.097
